Kindly supply the reported TGI values for the records listed here.
Tested on: HCT-116 colon
test-protocol: NCI tumour cell line growth inhibition, 48 h

O=C(Nc1ccc2nc(-c3ccccc3)cn2c1)Oc1ccccc1; > 100 µM
COc1cc(Cc2cc(OC)c(OC)c(OC)c2)ccc1O; > 100 µM
C=C(C)[C@@H](C(=O)OC)N1C(=O)c2ccccc2C1=O; > 100 µM

For the 2 compounds below, give their TGI values.
1. COC(=O)CCC(=O)NC1c2cccc3cccc(c23)Cn2c(=O)n(C)c(=O)n21 (stereo unspecified)
2. COc1cc2c(c(OC)c1OC)-c1ccc(SC)c(=O)cc1C(CC(=O)Oc1ccc([N+](=O)[O-])cc1)C2 (stereo unspecified)

[reply]
> 100 µM
1.82 µM

For the 7 compounds below, give their TGI values.
1. COc1cc(C2c3cc4c(cc3[C@H](OCCN(C)C)[C@@H]3COC(=O)C23)OCO4)cc(OC)c1O (stereo partly specified)
2. CCC1c2[nH]c3ccccc3c2C[C@H]2C(=O)NC(CCC(=O)OC(C)(C)C)C(=O)N12 (stereo partly specified)
3. COC(=O)CSc1n[nH]c(-c2ccc(O)c([N+](=O)[O-])c2)n1
4. O=c1c2ccccc2nnn1-c1n[nH]c2ccccc12
5. Clc1ccc2c(NCCCCN=Cc3ccccc3)ccnc2c1
6. N#[O+].O=S(=O)([O-])[O-].[NH2-].[NH2-].[NH2-].[NH2-].[NH2-].[Ru+5]
7. C#CC[C@]12CC(=O)CC[C@H]1CC(=O)C2

[reply]
1: 7.18 µM; 2: > 100 µM; 3: > 100 µM; 4: > 100 µM; 5: 18.4 µM; 6: > 100 µM; 7: > 100 µM

For the 4 compounds below, give their TGI values.
1. Cc1ccccc1Nc1cn(COCc2ccccc2)c(=O)[nH]c1=O
2. O=C(CCc1ccc(O)cc1)NCCc1ccc(O)cc1
3. CCOC(=O)C(=C(SC)SC)c1nn2c(=O)cc(C)nc2s1
4. Cc1c(Cc2ccccc2)n(COCCCO)c(=O)[nH]c1=O

[reply]
["> 100 µM", "> 100 µM", "30.5 µM", "> 100 µM"]

For the 6 compounds below, give their TGI values.
1. COc1cc2c3c(n(CCCBr)c(=O)c2cc1OC)-c1ccc(NC(C)=O)cc1C3=O
2. Clc1cccc(Cl)c1C1SCC2=Nc3ccccc3CN21 (stereo unspecified)
3. CC1CN=C(Nc2ccc(S(N)(=O)=O)cc2)S1 (stereo unspecified)
4. C[C@]12CC[C@@H]3c4ccc(Oc5nc(N6CC6)nc(N6CC6)n5)cc4CC[C@H]3[C@@H]1CCC2=O
5. CC(=O)NNc1nc(C)c(C(/C=C/c2cccc([N+](=O)[O-])c2)=N/NC(=S)NN)s1
6. NC(N)=NC(N)=Nc1cc2ccccc2c2ccccc12

[reply]
1: 18.1 µM; 2: 25.7 µM; 3: > 100 µM; 4: 18.8 µM; 5: > 100 µM; 6: 18.3 µM
